test system: KRAS-mutant PDC multicell tumor spheroid viability; assay: Anticancer human tumor 521955-158-R2-J5-PDC patient-derived pancreatic carcinoma cell line growth inhibition [KRAS2]; conditions: second compound 0.316 µM; first compound 0.0316 µM; hits give low values;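 note: viability read after seven days of drug exposure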
Provide the recorded viability, T/C for the entries that follow.
Just the number in %, nothing appended.

viability, T/C for CC(C)NCC(C(=O)N1CCN(c2ncnc3c2C(C)CC3O)CC1)c1ccc(Cl)cc1 (stereo not given) + CNCc1ccccc1-c1csc(C(C)Nc2nc(C)nc3cc(OC)c(OC)cc23)c1 ?
101

Consider the molecule shown here: CCN1CCN(Cc2ccc(Nc3ncc(F)c(-c4cc(F)c5nc(C)n(C(C)C)c5c4)n3)nc2)CC1 + C=CC(=O)N1CCN(c2nc(=O)n(-c3c(C)ccnc3C(C)C)c3nc(-c4c(O)cccc4F)c(F)cc23)C(C)C1 What is its recorded viability, T/C?
91.1

Fill in: viability, T/C of CN(C)C/C=C/C(=O)Nc1cc2c(Nc3ccc(F)c(Cl)c3)ncnc2cc1O[C@H]1CCOC1 + CC1OCC2(CCN(c3cnc(Sc4ccnc(N)c4Cl)c(N)n3)CC2)C1N is ___
63.5

What value of viability, T/C has been recorded for this entry: Cn1nccc1Nc1nccc(-c2cc3c(s2)C(C)(C)N(CCN2CCOCC2)C3=O)n1 + CC1OCC2(CCN(c3cnc(Sc4ccnc(N)c4Cl)c(N)n3)CC2)C1N
69.9

Need viability, T/C, item COc1cc2nccc(Oc3ccc(NC(=O)C4(C(=O)Nc5ccc(F)cc5)CC4)cc3)c2cc1OC + COc1cc2nc(C)nc(NC(C)c3cc(N)cc(C(F)(F)F)c3)c2cc1OC1CCOC1
99.7

Query: viability, T/C; subject: CC1COCCN1c1cc(-c2ccnn2C)c2ccnc(-c3ccn[nH]3)c2n1 (stereo not given) + C=CC(=O)N1CCN(c2nc(=O)n(-c3c(C)ccnc3C(C)C)c3nc(-c4c(O)cccc4F)c(F)cc23)C(C)C1
58.5

So what's the measured viability, T/C for this one? CCN1CCN(Cc2ccc(Nc3ncc(F)c(-c4cc(F)c5nc(C)n(C(C)C)c5c4)n3)nc2)CC1 + CC1OCC2(CCN(c3cnc(Sc4ccnc(N)c4Cl)c(N)n3)CC2)C1N
55.2

Which viability, T/C reading was recorded for the molecule CC1(C)CCC(CN2CCN(c3ccc(C(=O)NS(=O)(=O)c4ccc(NCC5CCOCC5)c([N+](=O)[O-])c4)c(Oc4cnc5[nH]ccc5c4)c3)CC2)=C(c2ccc(Cl)cc2)C1 + COc1cc2nc(C)nc(NC(C)c3cc(N)cc(C(F)(F)F)c3)c2cc1OC1CCOC1 ?
74.5

I'd like to know its viability, T/C. The molecule in question is CC(=O)OC12COC1CC(O)C1(C)C(=O)C(O)C3=C(C)C(OC(=O)C(O)C(NC(=O)OC(C)(C)C)c4ccccc4)CC(O)(C(OC(=O)c4ccccc4)C21)C3(C)C (stereo not given) + CNCc1ccccc1-c1csc(C(C)Nc2nc(C)nc3cc(OC)c(OC)cc23)c1
16.6

I have this molecule here, COc1cc(Nc2ncc3c(n2)-c2ccc(Cl)cc2C(c2c(F)cccc2OC)=NC3)ccc1C(=O)O + C=CC(=O)N1CCN(c2nc(OCC3CCCN3C)nc3c2CCN(c2cccc4cccc(C)c24)C3)CC1CC#N , and I need its recorded viability, T/C.
48.5
